- TESTED_ON: T1, full-length hANGPTL4 (amino acid residues 26-406 of SEQ ID NO:476) with a C-terminal hexa-histidine tag (human, UniProt Q9BY76 26-406)
- T1 construct: also called hANGPTL4-His; hANGPTL4(26-406)-His
- T1 sequence: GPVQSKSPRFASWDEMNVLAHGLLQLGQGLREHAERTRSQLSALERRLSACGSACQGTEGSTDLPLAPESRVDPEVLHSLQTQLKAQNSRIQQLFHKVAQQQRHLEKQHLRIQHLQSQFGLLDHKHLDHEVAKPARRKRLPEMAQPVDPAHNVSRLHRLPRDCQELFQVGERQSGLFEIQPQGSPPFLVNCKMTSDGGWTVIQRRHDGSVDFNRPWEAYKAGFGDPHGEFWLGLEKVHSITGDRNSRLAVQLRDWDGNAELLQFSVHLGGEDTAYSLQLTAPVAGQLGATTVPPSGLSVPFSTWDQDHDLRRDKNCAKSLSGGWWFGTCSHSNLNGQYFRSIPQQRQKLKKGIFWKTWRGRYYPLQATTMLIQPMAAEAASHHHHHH
- ASSAY_REMARKS: SPR (Biacore), 25° C., pH 7.2, antigen amino-coupled 450 RU
OBSERVABLE: Kd (nM)
Form entry: value (nM) — number only.

In: # lookup: Kd of H1H284P (antibody, V domains shown, also called entire H1H284 mAb; Full mAb) VH: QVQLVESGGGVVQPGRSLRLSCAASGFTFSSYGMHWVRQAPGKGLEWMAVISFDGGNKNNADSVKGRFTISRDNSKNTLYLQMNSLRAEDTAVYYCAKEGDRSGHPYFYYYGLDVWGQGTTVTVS VL: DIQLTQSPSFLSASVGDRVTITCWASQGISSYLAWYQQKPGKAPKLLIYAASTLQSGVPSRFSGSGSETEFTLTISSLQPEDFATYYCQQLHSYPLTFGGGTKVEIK
Out: 0.105
